Experiment: clinical
Settings: human, plasma, iv, 11.3 mg/kg
observed_property: C0 (ng/mL)
Just the number in ng/mL, nothing appended.

Kindly note the recorded C0 for O=P1(N(CCCl)CCCl)NCCCO1 (stereo unspecified) [CYCLOPHOSPHAMIDE ANHYDROUS] , which is 12500

====

Experiment: Drug excretion in po dosed lymphoma patient (7 patients) assessed as unchanged parent compound in urine
Settings: human
observed_property: dose excreted (%)
State the answer as a number, implicitly in %.

O=P1(N(CCCl)CCCl)NCCCO1 (stereo unspecified) [CYCLOPHOSPHAMIDE ANHYDROUS] has a reported dose excreted of 1.8

====

Experiment: Elimination rate constant in po dosed lymphoma patient (7 patients) by one compartment open model
Conditions: human, in vivo
observed_property: k el (s⁻¹)
Answer with a number only, understood to be in s⁻¹.

Reported k el ( O=P1(N(CCCl)CCCl)NCCCO1 (stereo unspecified) [CYCLOPHOSPHAMIDE ANHYDROUS] ) = 6.03e-05
